Protein target, amino acids: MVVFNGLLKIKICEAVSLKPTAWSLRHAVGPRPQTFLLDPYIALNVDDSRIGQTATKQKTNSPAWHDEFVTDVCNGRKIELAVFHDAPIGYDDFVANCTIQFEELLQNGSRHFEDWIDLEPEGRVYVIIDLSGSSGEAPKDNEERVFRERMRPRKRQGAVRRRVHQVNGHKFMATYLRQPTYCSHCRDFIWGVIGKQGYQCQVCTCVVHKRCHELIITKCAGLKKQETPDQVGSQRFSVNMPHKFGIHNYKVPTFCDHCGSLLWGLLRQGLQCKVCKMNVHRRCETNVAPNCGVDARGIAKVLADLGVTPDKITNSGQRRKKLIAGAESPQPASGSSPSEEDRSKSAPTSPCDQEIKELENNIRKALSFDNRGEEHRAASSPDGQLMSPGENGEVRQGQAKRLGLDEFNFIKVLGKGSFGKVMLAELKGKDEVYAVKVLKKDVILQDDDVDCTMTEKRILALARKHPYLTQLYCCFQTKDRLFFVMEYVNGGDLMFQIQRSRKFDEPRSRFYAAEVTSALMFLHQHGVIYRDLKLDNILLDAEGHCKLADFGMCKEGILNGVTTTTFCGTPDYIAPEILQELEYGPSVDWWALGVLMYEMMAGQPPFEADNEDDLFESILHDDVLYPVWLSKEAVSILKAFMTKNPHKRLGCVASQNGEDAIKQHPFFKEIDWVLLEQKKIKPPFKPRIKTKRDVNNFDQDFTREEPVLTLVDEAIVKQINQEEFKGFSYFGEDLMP

[
  {
    "COMPOUND": "Nc1c(N2CCN(C3CCCCC3)CC2)cc(Nc2ccc(C(=O)O)cc2)c2c1C(=O)c1ccccc1C2=O [Compound 12]",
    "IC50": "> 10 µM"
  }
]

---

ASSAY_TARGET: ALK5/TGFB-R1 (Homo sapiens)
Construct: other kinases of recombinant human cytoplasmic domain
Sequence (P36897 148-503 limits assumed): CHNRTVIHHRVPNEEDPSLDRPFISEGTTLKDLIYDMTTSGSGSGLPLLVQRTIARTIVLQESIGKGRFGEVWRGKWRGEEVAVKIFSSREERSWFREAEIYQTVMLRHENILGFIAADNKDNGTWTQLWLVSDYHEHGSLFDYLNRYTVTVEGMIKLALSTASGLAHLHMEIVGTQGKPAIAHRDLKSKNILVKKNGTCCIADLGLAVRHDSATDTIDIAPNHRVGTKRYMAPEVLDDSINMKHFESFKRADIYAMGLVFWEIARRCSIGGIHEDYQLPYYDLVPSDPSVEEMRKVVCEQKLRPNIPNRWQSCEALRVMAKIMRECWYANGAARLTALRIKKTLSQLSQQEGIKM
RUN_DESCRIPTION: radiometric kinase assay, other kinases: ALK5/TGFB-R1
TEST_CONDITIONS: duplicate
OUTCOME_MEASURE: IC50

[
  {
    "COMPOUND": "Nc1c(N2CCN(C3CCCCC3)CC2)cc(Nc2ccc(C(=O)O)cc2)c2c1C(=O)c1ccccc1C2=O [Compound 12]",
    "VALUE_OBSERVED": "> 10 µM"
  }
]

---

ASSAY_TARGET: FES/FPS (Homo sapiens, UniProt P07332)
Sequence (P07332 whole entry): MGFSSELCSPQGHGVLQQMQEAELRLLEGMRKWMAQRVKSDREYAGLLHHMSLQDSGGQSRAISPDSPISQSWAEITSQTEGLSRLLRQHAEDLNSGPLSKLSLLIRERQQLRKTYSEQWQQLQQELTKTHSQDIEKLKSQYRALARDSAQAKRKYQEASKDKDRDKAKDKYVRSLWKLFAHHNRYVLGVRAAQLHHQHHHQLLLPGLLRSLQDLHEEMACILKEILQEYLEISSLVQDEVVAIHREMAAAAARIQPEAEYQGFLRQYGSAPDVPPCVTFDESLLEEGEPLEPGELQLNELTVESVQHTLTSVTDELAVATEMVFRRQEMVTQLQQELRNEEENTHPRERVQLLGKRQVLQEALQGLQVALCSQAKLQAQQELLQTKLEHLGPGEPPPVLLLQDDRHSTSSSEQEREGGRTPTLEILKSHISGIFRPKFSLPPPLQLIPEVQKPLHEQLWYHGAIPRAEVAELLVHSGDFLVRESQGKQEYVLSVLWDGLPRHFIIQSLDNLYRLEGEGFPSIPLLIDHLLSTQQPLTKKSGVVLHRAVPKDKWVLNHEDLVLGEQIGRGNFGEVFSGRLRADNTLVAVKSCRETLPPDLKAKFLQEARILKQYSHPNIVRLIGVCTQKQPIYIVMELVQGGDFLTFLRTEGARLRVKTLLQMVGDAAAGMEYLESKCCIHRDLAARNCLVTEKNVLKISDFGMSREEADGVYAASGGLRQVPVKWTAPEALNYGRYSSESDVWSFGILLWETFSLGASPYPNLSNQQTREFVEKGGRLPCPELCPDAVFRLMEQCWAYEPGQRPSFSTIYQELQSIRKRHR
RUN_DESCRIPTION: radiometric kinase assay, other kinases: FES/FPS
TEST_CONDITIONS: duplicate
pIC50: −log10 of the molar value.
OUTCOME_MEASURE: pIC50

[
  {
    "STRUCTURE_AS_SMILES": "Nc1c(N2CCN(C3CCCCC3)CC2)cc(Nc2ccc(C(=O)O)cc2)c2c1C(=O)c1ccccc1C2=O",
    "VALUE_OBSERVED": "< 5.00"
  }
]

Data origin, for the record: patent US9855265B2
